# Tested on: C. elegans strain CB5586
# testDescription: C. elegans phenotypic lifespan screening (Kaplan-Meier, Log-Rank, Fisher's Exact Test)
# Assay type: in vivo
# experimentalSetup: 10 mg/ml
reportedProperty: population age in days at 75% mortality (days)

• C[C@@H]1O[C@@H](OC[C@H]2O[C@@H](Oc3c(-c4ccc(O)c(O)c4)oc4cc(O)cc(O)c4c3=O)[C@H](O)[C@@H](O)[C@@H]2O)[C@H](O)[C@H](O)[C@H]1O [N346, rutin hydrate] = 16
• O=c1c(O)c(-c2ccc(O)c(O)c2)oc2cc(O)cc(O)c12 = 16
• COc1ccc([C@@H]2CC(=O)c3c(O)cc(O[C@@H]4O[C@H](CO[C@@H]5O[C@@H](C)[C@H](O)[C@@H](O)[C@H]5O)[C@@H](O)[C@H](O)[C@H]4O)cc3O2)cc1O = 18
• Oc1ccc(/C=C/c2cc(O)cc(O)c2)cc1 [Resveratrol, 3,5,4′-trihydroxy-trans-stilbene] = 18
• O=C(O)CCCCC1CCSS1 (racemic) = 18
